# assay_context: in ethanol, 330.25 K
measure_name: solubility (mole fraction)

> print(dat)
                  compound.smiles                measure.name  recorded.result
1  COc1cc([N+](=O)[O-])c(OC)cc1Cl  solubility (mole fraction)          0.00558

* * *

# assay_context: in ethanol, 327.25 K
measure_name: solubility (mole fraction)

> print(dat)
                  compound.smiles  recorded.result
1  COc1cc([N+](=O)[O-])c(OC)cc1Cl           0.0048

* * *

# assay_context: in methanol, 293.45 K
measure_name: solubility (mole fraction)

> print(dat)
                  compound.smiles  recorded.result
1  COc1cc([N+](=O)[O-])c(OC)cc1Cl         0.000895

* * *

# assay_context: in methanol, 324.85 K
measure_name: solubility (mole fraction)

> print(dat)
                  compound.smiles  recorded.result
1  COc1cc([N+](=O)[O-])c(OC)cc1Cl          0.00383

* * *

# assay_context: in toluene, 280.55 K
measure_name: solubility (mole fraction)

> print(dat)
                  compound.smiles                measure.name  recorded.result
1  COc1cc([N+](=O)[O-])c(OC)cc1Cl  solubility (mole fraction)           0.0107

* * *

# assay_context: in p-xylene, 328.45 K
measure_name: solubility (mole fraction)

> print(dat)
                  compound.smiles  recorded.result
1  COc1cc([N+](=O)[O-])c(OC)cc1Cl           0.0522

* * *

# assay_context: in toluene, 305.35 K
measure_name: solubility (mole fraction)

> print(dat)
                  compound.smiles                measure.name  recorded.result
1  COc1cc([N+](=O)[O-])c(OC)cc1Cl  solubility (mole fraction)           0.0273

* * *

# assay_context: in ethanol, 292.15 K
measure_name: solubility (mole fraction)

> print(dat)
       compound.smiles  recorded.result
1  COc1cc(Cl)c(OC)cc1N          0.00497

* * *

# assay_context: in p-xylene, 332.35 K
measure_name: solubility (mole fraction)

> print(dat)
                  compound.smiles                measure.name  recorded.result
1  COc1cc([N+](=O)[O-])c(OC)cc1Cl  solubility (mole fraction)           0.0604

* * *

# assay_context: in toluene, 297.95 K
measure_name: solubility (mole fraction)

> print(dat)
                  compound.smiles  recorded.result
1  COc1cc([N+](=O)[O-])c(OC)cc1Cl           0.0211

* * *

# assay_context: in toluene, 296.45 K
measure_name: solubility (mole fraction)

> print(dat)
       compound.smiles                measure.name  recorded.result
1  COc1cc(Cl)c(OC)cc1N  solubility (mole fraction)           0.0169

* * *

# assay_context: in methanol, 309.95 K
measure_name: solubility (mole fraction)

> print(dat)
       compound.smiles  recorded.result
1  COc1cc(Cl)c(OC)cc1N           0.0115

* * *

# assay_context: in toluene, 313.75 K
measure_name: solubility (mole fraction)

> print(dat)
       compound.smiles  recorded.result
1  COc1cc(Cl)c(OC)cc1N           0.0373

Where do these numbers come from? They come from BigSolDB 2.1.
